# Lookup of reported CC50 keyed by entry
test system: HeLa; test: SRB colorimetric assay of cell growth and viability, HeLa; assay type: cell-based, human; conditions: 48 hours exposure, SRB; read-out: LC50 HELA

C/C=C1\NC(=O)[C@H](Cc2ccccc2)NC(=O)[C@@H](C(C)C)NC(=O)[C@@H]([C@@H](C)CC)NC(=O)[C@H](NC(=O)[C@H](NC(=O)[C@H](CCCNC(=O)C(F)(F)F)NC(=O)[C@H]2CCCN2C(=O)[C@H](NC(=O)[C@@H](NC(=O)[C@@H](NC(=O)[C@H](NC(=O)CC[C@@H](C)CC)C(C)C)[C@@H](C)OC(=O)C(F)(F)F)C(C)C)C(C)C)[C@@H](C)CC)[C@@H](C)OC(=O)[C@H](C(C)C)NC1=O | 0.579 µM

Then there is this compound:
Please report the measured CC50 for C/C=C1\NC(=O)[C@H](Cc2ccccc2)N(C)C(=O)[C@@H](C(C)C)NC(=O)[C@@H]([C@@H](C)CC)NC(=O)[C@H](NC(=O)[C@H](NC(=O)[C@H](CCCN)NC(=O)[C@H]2CCCN2C(=O)[C@H](NC(=O)[C@@H](NC(=O)[C@@H](NC(=O)[C@H](NC(=O)CC[C@@H](C)CC)C(C)C)[C@@H](C)O)C(C)C)C(C)C)[C@@H](C)CC)[C@@H](C)OC(=O)[C@H](C(C)C)NC1=O [Compound 80, [NMePhe^3, (4S)-MeHex^14]-KF]
2.51 µM

* * *

# Lookup of reported CC50 keyed by entry
system: HeLa; assay: SRB colorimetric assay of cell growth and viability, HeLa; type: cell-based, human; details: HELA; 48 hours exposure; read-out: LC50 HELA
Where a SMILES comes first, the peptide text is derived from it. Bridges are numbered along the chain shown (N, C = ends). [ ]: non-standard residue; d: D form. The star is where a group is joined. 2Nal = N[C@@H](Cc1ccc2ccccc2c1)C(=O)O; d(aIle) = CC[C@H](C)[C@@H](N)C(=O)O; d(aThr) = C[C@@H](O)[C@@H](N)C(=O)O; Hexanoyl(5-Me) = CC(C)CCCC(=O)*; Orn = NCCC[C@H](N)C(=O)O; Dhb = C/C=C(\N)C(=O)O

Example entries and their recorded answers appear below.
C/C=C1\NC(=O)[C@H](Cc2ccc(Cl)cc2)NC(=O)[C@@H](C(C)C)NC(=O)[C@@H]([C@@H](C)CC)NC(=O)[C@H](NC(=O)[C@H](NC(=O)[C@H](CCCN)NC(=O)[C@H]2CCCN2C(=O)[C@H](NC(=O)[C@@H](NC(=O)[C@@H](NC(=O)[C@H](NC(=O)CCCC(C)C)C(C)C)[C@@H](C)O)C(C)C)C(C)C)[C@@H](C)CC)[C@@H](C)OC(=O)[C@H](C(C)C)NC1=O [Compound 83, [Phe(4-Cl)^3]-KF] | 0.475 µM
C/C=C1\NC(=O)[C@H](Cc2ccc3ccccc3c2)NC(=O)[C@@H](C(C)C)NC(=O)[C@@H]([C@@H](C)CC)NC(=O)[C@H](NC(=O)[C@H](NC(=O)[C@H](CCCN)NC(=O)[C@H]2CCCN2C(=O)[C@H](NC(=O)[C@@H](NC(=O)[C@@H](NC(=O)[C@H](NC(=O)CCCC(C)C)C(C)C)[C@@H](C)O)C(C)C)C(C)C)[C@@H](C)CC)[C@@H](C)OC(=O)[C@H](C(C)C)NC1=O [Compound 85, [Nal^3]-KF] ({Hexanoyl(5-Me)}-[dV]TV[dV][dP][Orn][d(aIle)][d(aThr)][d(aIle)][dV][2Nal][Dhb]V; ester 8-C) | 0.462 µM
C/C=C1\NC(=O)[C@H](Cc2ccccc2)NC(=O)[C@@H](C(C)C)NC(=O)[C@@H]([C@@H](C)CC)NC(=O)[C@H](NC(=O)[C@H](NC(=O)[C@H](CCCN)NC(=O)[C@@H]2CCCN2C(=O)[C@H](NC(=O)[C@@H](NC(=O)[C@@H](NC(=O)[C@H](NC(=O)CC[C@@H](C)CC)C(C)C)[C@@H](C)O)C(C)C)C(C)C)[C@@H](C)CC)[C@@H](C)OC(=O)[C@H](C(C)C)NC1=O [Compound 59, [Pro^9, (4S)-MeHex^14]-KF] | ≥ 6.76 µM
C/C=C1\NC(=O)[C@H](Cc2ccccc2Cl)NC(=O)[C@@H](C(C)C)NC(=O)[C@@H]([C@@H](C)CC)NC(=O)[C@H](NC(=O)[C@H](NC(=O)[C@H](CCCN)NC(=O)[C@H]2CCCN2C(=O)[C@H](NC(=O)[C@@H](NC(=O)[C@@H](NC(=O)[C@H](NC(=O)CCCC(C)C)C(C)C)[C@@H](C)O)C(C)C)C(C)C)[C@@H](C)CC)[C@@H](C)OC(=O)[C@H](C(C)C)NC1=O [Compound 81, [Phe(2-Cl)^3]-KF] | 1.44 µM

Then there is this molecule:
State CC50 (HeLa) of C/C=C1\NC(=O)[C@H](Cc2ccccc2)NC(=O)[C@@H](C(C)C)NC(=O)[C@@H]([C@@H](C)CC)NC(=O)[C@H](NC(=O)[C@H](NC(=O)[C@H](CCCN)NC(=O)[C@H]2CCCN2C(=O)[C@H](NC(=O)[C@@H](NC(=O)[C@H](CC(C)C)NC(=O)[C@H](NC(=O)CCCC(C)C)C(C)C)C(C)C)C(C)C)[C@@H](C)CC)[C@@H](C)OC(=O)[C@H](C(C)C)NC1=O [Compound 113, [Leu^12]-KF] ({Hexanoyl(5-Me)}-[dV]LV[dV][dP][Orn][d(aIle)][d(aThr)][d(aIle)][dV]F[Dhb]V; ester 8-C) .
5.79 µM
